Test target: mitochondrial calcium uniporter (Homo sapiens, UniProt Q8NE86)
Sequence (Q8NE86 51-351): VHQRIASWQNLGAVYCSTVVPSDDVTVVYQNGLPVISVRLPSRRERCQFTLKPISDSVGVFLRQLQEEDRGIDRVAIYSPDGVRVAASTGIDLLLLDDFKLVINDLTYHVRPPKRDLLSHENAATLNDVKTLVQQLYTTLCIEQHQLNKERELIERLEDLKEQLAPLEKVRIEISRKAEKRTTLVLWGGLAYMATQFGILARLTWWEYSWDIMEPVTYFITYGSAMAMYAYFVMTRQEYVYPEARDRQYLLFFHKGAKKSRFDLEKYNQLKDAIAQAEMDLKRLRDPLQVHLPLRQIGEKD
Sequence (Q9H4I9 48-107 partner limits assumed): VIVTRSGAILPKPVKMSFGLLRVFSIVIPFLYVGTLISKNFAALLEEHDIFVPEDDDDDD
Protocol notes: Aequorin assay: serum-induced mitochondrial Ca2+ influx in HEK293A cells expressing mitochondria-targeted aequorin
Assay type: cell-based
Parameters: endogenous in cells; host or cells: HEK293A cells stably expressing mitochondria-targeted aequorin
Assay setup: 10% fetal bovine serum, 20 min pretreatment, read-out: IC50, inhibition of serum-induced mitochondrial Ca2+ influx
Assay endpoint: IC50 (µM)
Report the value in µM with no unit label.

**Query** Look up IC50 for this compound: Cc1onc(-c2c(Cl)cccc2Cl)c1CNc1cccc(C(=O)c2cn(CCCC(=O)O)c3ccccc23)c1 [DS16570511]
**Result** 7
